- test_method_notes: NCI Yeast Anticancer Drug Screen. Data for the mlh1 rad18 strain (AID 175)
- applied_conditions: S. cerevisiae mlh1 rad18 strain growth inhibition; at 50.0 µM
This is part of a sample that, as a whole, favours compounds with a hit. Of some 79,000 tested, about 15% had one in any assay. The source made the active and inactive calls. No stated cut-off is given here; in the data, active means growth inhibition above about 70%; inactive means the rest.
Classes used: 1 (active), 0 (inactive)

molecule | cat
CCCCCCCCCCCCCCCCS(=O)(=O)N/N=C(/c1ccc(Cl)cc1)N1CCCCC1 | 0
O=C(O)CCSC1(SCCC(=O)O)CCCCC1 | 0
COc1ccc(C(=O)COC(C)(C)C)cc1 | 0
O=C(O)c1cc(C(=O)O)nc(C(=O)O)c1 | 0
Nc1cccc(N)n1.[Cu+2] | 0
N#CCCN1C(=O)C2(CCC#N)CCCCC2(O)N=C1c1ccccc1 (centres undefined) | 0
O=C(N/N=C/c1ccccc1Cl)c1ccccc1 | 0
CCCCCC/C(C)=N/O | 0
O=C(O)c1ccccc1/C=N\NC1=NCCCCN1 | 0
O=c1[nH]cc(SSc2c[nH]c(=O)[nH]c2=O)c(=O)[nH]1 | 0
COC1CC(OC(=O)c2ccccc2)C(OC(=O)c2ccccc2)C(CBr)O1 (centres undefined) | 1
COc1cc(OC)c(NC(=O)/C=C/c2ccccc2)cc1Cl | 0
COc1ccc(/C=N/N2CCN(/N=C/c3ccc(OC)cc3)CC2)cc1 | 0
O=C(CCc1cc(O)cc(O)c1)NCCc1cc(OCc2ccccc2)cc(OCc2ccccc2)c1 | 0
CCOC(=O)NC(CCl)NC(=O)OCC | 0
Nc1nc(N)c2c(n1)CCC(CNc1ccc(C(=O)NC(CCC(=O)O)C(=O)O)cc1)C2 (centres undefined) | 0
ClC(Cl)C1OCCCO1 | 0
COc1ccc(C#CCC(OC2OC(CO)C(O)C(O)C2O)C(O)c2ccc(OC)c(OC)c2)cc1OC (centres undefined) | 0
NC1=Nc2ncccc2C(=O)NN1 | 0
O=[P+](O)c1cc2c3ccccc3ccc2c2ccccc12 | 0
CCCCNC(=O)Nc1nc2ccccc2s1 | 0
O=C(C(=O)c1cccc(C(=O)C(=O)c2ccccc2)c1)c1ccccc1 | 0
CCCNC(C)C(C)O (centres undefined) | 0
Cc1cc([O-])c([I+]c2ccccc2)c(=O)[nH]1 | 1
CCCCC(CC)COCCC(=O)O (centres undefined) | 0
CSc1nc(Cl)nc2c1nc(SC)n2-c1ccccc1 | 0
CCOC(=O)c1cnc2[nH]ccn2c1=O | 0
COc1ccc(Cc2cc3c(cc2OCC(=O)N2CCOCC2)OCO3)cc1 | 0
CCOC(=O)c1c(Br)c2c3ccccc3c3ccccc3n2c1C | 0
CC(=O)OC1CCC2(C)C(=CCC3C2CCC2(C)C3CCC23SCCS3)C1 (centres undefined) | 0
OC1COC(c2ccccc2)OC1C(O)C1OC(c2ccccc2)OCC1O (centres undefined) | 0
COc1cc(Br)cc(OC)c1Oc1cc(OC)c(OC)c(OC)c1Br | 0
CC1(C)OCC2(CO1)CSCCCSCC1(COC(C)(C)OC1)CSCCCSC2 | 0
Nc1ccc(S(=O)c2ccc(N)cc2)cc1 | 0
COc1cccc2c1N=c1c(Cl)c3c(c(Cl)c1O2)=Nc1c(OC)cccc1O3 | 0
COC1CC(NC(C)=O)C2OC(c3ccccc3)OCC2O1 (centres undefined) | 0
c1ccc(Cc2[nH]nc(-c3n[nH]c(Cc4ccccc4)c3-c3ccccc3)c2-c2ccccc2)cc1 | 0
COc1cccc(OC)c1C | 0
O=C(OC1COC(n2c(=O)oc3cc([N+](=O)[O-])c([N+](=O)[O-])cc32)C(OC(=O)c2ccccc2)C1OC(=O)c1ccccc1)c1ccccc1 (centres undefined) | 0
COc1ccccc1NC(=O)N(Cc1ccccc1)C(C)(C)C | 0
CNc1c(F)cc(C(=O)O)cc1F | 0
Cc1cc(=O)[nH]c(/N=C(/N)N(C)C)n1 | 0
NC(N)=Nc1ccccc1OC1OC(CO)C(O)C(O)C1O (centres undefined) | 0
Cc1cc2c(cc1C)NC(=O)C(NC(=O)c1ccc(Cl)cc1)C=N2 (centres undefined) | 0
CCOC(=O)c1ccc(NC(=O)Nc2cc(Cl)c(OC)cc2OC)cc1 | 1
O=C1NC(=S)NC(=O)C1=Cc1ccccc1OCc1ccccc1 | 0
COc1ccc2[nH]cc(CC(N)=O)c2c1 | 0
Cc1cc2oc(=O)[nH]c(=S)c2c(C)c1C | 0
O=C1NC(=O)C(=Cc2cc3c(cc2Br)OCO3)C(=O)N1 | 0
